Provide the reported pIC50 of each item.
- target.or.test.system: T1, U-STAT1 (purified full-length unphosphorylated STAT1) (UniProt P42224 1-750)
- T1 construct: also called Full-length STAT1
- T1 sequence (looked up): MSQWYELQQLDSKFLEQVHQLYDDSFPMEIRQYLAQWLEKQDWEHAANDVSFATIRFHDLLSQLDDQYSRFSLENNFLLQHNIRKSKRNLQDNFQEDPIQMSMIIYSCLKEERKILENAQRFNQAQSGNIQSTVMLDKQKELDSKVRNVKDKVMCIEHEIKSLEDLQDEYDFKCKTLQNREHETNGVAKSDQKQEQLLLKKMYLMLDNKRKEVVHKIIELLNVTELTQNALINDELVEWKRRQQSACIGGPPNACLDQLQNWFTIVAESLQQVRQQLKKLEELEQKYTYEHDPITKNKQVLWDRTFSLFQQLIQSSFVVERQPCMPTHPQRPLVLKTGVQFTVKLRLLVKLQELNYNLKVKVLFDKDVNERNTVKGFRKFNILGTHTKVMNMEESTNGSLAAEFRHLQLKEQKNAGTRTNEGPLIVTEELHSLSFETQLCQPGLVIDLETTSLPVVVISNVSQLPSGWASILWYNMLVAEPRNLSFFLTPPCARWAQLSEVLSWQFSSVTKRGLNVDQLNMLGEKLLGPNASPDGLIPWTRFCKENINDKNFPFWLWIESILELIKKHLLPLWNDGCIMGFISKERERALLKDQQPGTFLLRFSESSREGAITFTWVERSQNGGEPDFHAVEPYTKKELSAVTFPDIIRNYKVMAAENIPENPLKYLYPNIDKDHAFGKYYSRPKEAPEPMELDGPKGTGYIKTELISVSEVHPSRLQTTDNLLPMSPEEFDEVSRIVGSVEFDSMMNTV
- test.name: fluorescence polarisation
- details: both partners purified
Numbers only, as −log10 of the molar value.

Solved entries:
GB1-018 (natural protein) MSSKGGSSGGMWSVFIHGHDGSNKGSKTYTSGGGGMWGGGSSSGVKSGVNGGVKSGTGKI; 5.90
MWSVFIHGHDGSNKGSK (domain or fragment) [GB1-018^T3]; 4.75

Continue with the binder presented below.
Answer with the recorded pIC50 for the binder listed here: MWSVFIHGHDGSNKGSKTYTS (domain or fragment) [GB1-018^T2]
6.03
